- experiment_summary: UV absorption of quinoline chromophores in KMOPS buffer
- Format: physicochemical
- condition_details: pH 7.2
endpoint_name: ε (extinction coefficient at λmax) (M⁻¹ cm⁻¹)

Here's what some known entries look like.
{"columns": ["compound", "units_text", "ε (extinction coefficient at λmax)"],
 "data": [
  ["CC(=O)OCc1ccc2ccc(O)c(Cl)c2n1 [CHQ-OAc (1c)]", "M⁻¹ cm⁻¹", 2800],
  ["CC(=O)OCc1cc(Cl)c2ccc(N(C)C)cc2n1 [DMAQ-Cl—OAc (2b)]", "M⁻¹ cm⁻¹", 3300],
  ["CC(=O)OCc1ccc2ccc(O)c([N+](=O)[O-])c2n1 [NHQ-OAc (1a)]", "M⁻¹ cm⁻¹", 6500]
]}

(A) CC(=O)OCc1ccc2ccc(O)c(C#N)c2n1 [CyHQ-OAc (1b)]
(B) CC(=O)OCc1ccc2ccc(N(C)C)cc2n1 [DMAQ-OAc (2a)]
Exercise: Of the pair A and B , name the member with the lesser recorded ε (extinction coefficient at λmax). Field: selected label. Fill in the label of the entry you choose.
Key: B

====

- experiment_summary: Two-photon uncaging action cross-section (740 nm, Tsien's method, fluorescein reference)
- Assay type: physicochemical
- condition_details: calculated from du = da × Qu
endpoint_name: λa (calculated 2-photon absorbance cross-section) (GM)

Here's what some known entries look like.
{"columns": ["smi", "reported_result"],
 "data": [
  ["CC(=O)OCc1ccc2ccc(N(C)C)cc2n1", 2.8],
  ["CC(=O)OCc1ccc2ccc(O)c(Br)c2n1", 2.0],
  ["CC(=O)OCc1ccc2ccc(O)c(Cl)c2n1", 1.2]
]}

(A) CC(=O)OCc1ccc2ccc(O)c(C#N)c2n1
(B) CC(=O)OCc1cc(Cl)c2ccc(N(C)C)cc2n1
Exercise: Of the pair A and B , name the member with the lesser recorded λa (calculated 2-photon absorbance cross-section). Field: selected label. Fill in the label of the entry you choose.
Key: A

====

- experiment_summary: Quantum efficiency for one-photon photolysis (365 nm, HPLC)
- Type: physicochemical
- condition_details: one-photon excitation, 365 nm; KMOPS, pH 7.2; in M^-1·cm^-1
endpoint_name: Sensitivity Qu × e

{"columns": ["smi", "Sensitivity Qu × e"],
 "data": [
  ["CC(=O)OCc1ccc2ccc(O)c(Br)c2n1", 754],
  ["CC(=O)OCc1ccc2ccc(N(C)C)cc2n1", 211],
  ["CC(=O)OCc1ccc2ccc(O)c(Cl)c2n1", 280]
]}

(P) CC(=O)OCc1cc(Cl)c2ccc(N(C)C)cc2n1
(Q) CC(=O)OCc1ccc2ccc(O)c(C#N)c2n1
(R) CC(=O)OCc1ccc2ccc(O)c([N+](=O)[O-])c2n1
Exercise: Endpoint returns the given compounds ordered by ascending Sensitivity Qu × e. As an answer, provide the labels arranged in the order called for.
Key: R, P, Q
(R: 0, P: 234, Q: 2387)
